test system: human apolipoprotein B mRNA; test: Inhibition of human apolipoprotein B mRNA levels in HepG2 cells, quantitative real-time PCR; type: cell-based; conditions: Table 12; HepG2 cells, 150 nM; averages from two experiments
In the oligonucleotide strings, read from the 5' end, every base follows the letter of its sugar. An asterisk marks phosphorothioate; unmarked linkages are phosphodiester. Other units and linkages are bracketed, terminal groups are in braces. A string of capitals states the bases alone. e = 2'-O-(2-methoxyethyl) (MOE); [5mC] = 5-methylcytosine; d = 2'-deoxy (DNA)
Returns: string. Value is 1.0 if measured % INHIB is below 40%, and 0.0 if it is greater than or equal to it.

Completed entries (count: 4):
1. 271009 (antisense eG*e[5mC]*e[5mC]*eT*e[5mC]*dA*dG*dT*d[5mC]*dT*dG*d[5mC]*dT*dT*d[5mC]*eG*e[5mC]*eG*e[5mC]*e[5mC]) [compound 271009]
0.0
2. 271047 (e[5mC]*e[5mC]*eT*e[5mC]*e[5mC]*d[5mC]*dT*d[5mC]*dA*dT*dG*dA*dA*d[5mC]*dA*eT*eA*eG*eT*eG; antisense) [compound 271047]
1.0
3. 271024 (eG*e[5mC]*eT*e[5mC]*eA*d[5mC]*dT*dG*dT*dT*d[5mC]*dA*dG*d[5mC]*dA*eT*e[5mC]*eT*eG*eG; antisense) [compound 271024]
1.0
4. 271040 (eG*eT*e[5mC]*e[5mC]*eT*dT*d[5mC]*dA*dT*dA*dT*dT*dT*dG*d[5mC]*e[5mC]*eA*eT*e[5mC]*eT; antisense) [compound 271040]
1.0

In the record for 281647 (eT*eG*eA*eG*eT*dG*dA*dG*dT*d[5mC]*dA*dA*dT*d[5mC]*dA*eG*e[5mC]*eT*eT*e[5mC]) [compound 281647] , is % INHIB less than 40%?
0.0

In the record for 281639 (antisense eG*eA*e[5mC]*eG*eT*d[5mC]*dA*dG*dA*dA*d[5mC]*d[5mC]*dT*dA*dT*eG*eA*eT*eG*eG) [compound 281639] , is % INHIB less than 40%?
1.0

* * *

Tested on: human apolipoprotein B mRNA
Assay: Inhibition of human apolipoprotein B mRNA levels in HepG2 cells, quantitative real-time PCR
Format: cell-based
Settings: Table 11 gene walk; HepG2 cells, 150 nM; averages from two experiments
Protocol: The human hepatoblastoma cell line HepG2 was obtained from the American Type Culture Collection (Manassas, Va.). […] Quantitation of apolipoprotein B mRNA levels was determined by real-time quantitative PCR using the ABI PRISM™ 7700 Sequence Detection System (PE-Applied Biosystems, Foster City, Calif.) according to manufacturer's instructions. […]
In the oligonucleotide strings, read from the 5' end, every base follows the letter of its sugar. An asterisk marks phosphorothioate; unmarked linkages are phosphodiester. Other units and linkages are bracketed, terminal groups are in braces. A string of capitals states the bases alone. e = 2'-O-(2-methoxyethyl) (MOE); [5mC] = 5-methylcytosine; d = 2'-deoxy (DNA)
property: % INHIB 150 nm (%)
The answer is to be given in %; state only the numeric part.

// known answers, use as guide
1. 308610 (eA*e[5mC]*e[5mC]*eA*eG*d[5mC]*d[5mC]*dA*d[5mC]*dA*dT*dG*d[5mC]*dA*dG*e[5mC]*eT*eT*e[5mC]*eA; antisense) [compound 308610]
90
2. 308590 (antisense eA*e[5mC]*e[5mC]*eT*eT*d[5mC]*dT*dG*d[5mC]*dT*dT*dG*dA*dG*dT*eT*eA*e[5mC]*eA*eA) [compound 308590]
98
3. 308592 (antisense eT*e[5mC]*eG*e[5mC]*eA*d[5mC]*d[5mC]*dT*dT*d[5mC]*dT*dG*d[5mC]*dT*dT*eG*eA*eG*eT*eT) [compound 308592]
96
4. 308615 (e[5mC]*eT*eT*eT*eT*dA*dG*dG*dT*dT*dA*d[5mC]*d[5mC]*dA*dG*e[5mC]*e[5mC]*eA*e[5mC]*eA; antisense) [compound 308615]
85

The substance listed as 308593 (antisense e[5mC]*eT*eT*e[5mC]*eG*d[5mC]*dA*d[5mC]*d[5mC]*dT*dT*d[5mC]*dT*dG*d[5mC]*eT*eT*eG*eA*eG) [compound 308593] shows % INHIB 150 nm equal to 80

From: patent US7803930B2
